// data source = patent US20250221967A1

Each record here notes measured IC50.
Molecular target: Rb-NT (380-785) (Homo sapiens)
Sequence (P06400 380-785): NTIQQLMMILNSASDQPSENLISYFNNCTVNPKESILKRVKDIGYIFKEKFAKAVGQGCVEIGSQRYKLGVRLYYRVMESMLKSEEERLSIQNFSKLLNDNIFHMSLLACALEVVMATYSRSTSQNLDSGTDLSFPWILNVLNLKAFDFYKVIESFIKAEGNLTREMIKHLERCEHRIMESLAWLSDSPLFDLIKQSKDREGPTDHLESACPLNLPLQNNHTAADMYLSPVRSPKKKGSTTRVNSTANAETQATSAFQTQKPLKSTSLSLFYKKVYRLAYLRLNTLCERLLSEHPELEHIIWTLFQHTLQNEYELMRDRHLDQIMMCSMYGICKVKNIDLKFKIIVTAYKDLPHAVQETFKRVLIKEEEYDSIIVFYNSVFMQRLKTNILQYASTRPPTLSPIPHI
Could you give me the number in nM? Just the number is fine.

These recorded examples may help you get a feel for the data.
# MOLECULE, NUMERIC READOUT
data = [
    ("Cn1c(=O)sn(-c2cccc(OCCCNC(=O)c3ccccc3)c2)c1=O [AP-08-238]", 54),
    ("O=c1sn(-c2cccc3ccccc23)c(=O)n1Cc1ccccc1 [Tideglusib, reference compound]", 126),
    ("Cn1c(=O)sn(-c2cccc(OCCCNC(=O)CC[C@@H](NC(=O)c3ccc(NCCc4cc5c(=O)[nH]c(N)nc5[nH]4)cc3)C(=O)O)c2)c1=O [AP-08-237]", 22),
]

Measured IC50 of COc1cccc(-n2sc(=O)n(C)c2=O)c1 [AP-03-084] : 445
